# Test system: DIV14
# method: qHTS profiling for inhibitors of Plasmodium falciparum proliferation (AID 504749); further: nearly all actives have a fitted effect of over 60% in size
# test settings: P. falciparum in erythrocytes, SYBR Green DNA, 72 h; series mostly up to 28.7 µM
Results filed as inconclusive are left out. Active and inactive are the calls of the source. The call rests on the fitted dose curve; in most records, active means well fitted inhibition curve with a large enough effect; inconclusive means small, poorly fitted or top-dose-only effect; inactive means flat fitted curve, though single readings scatter.
Hello, when you answer, please use one of the following outcomes: active, inactive

**Q:** Can you look up the reported call for O=C/C=C/c1ccccc1 for me?
**A:** inactive

**Q:** Lab log entry: CCC1(C)CC(=O)NC(=O)C1 — outcome as called in the assay?
**A:** inactive

**Q:** Fill in: this test's call for Oc1cccc[c]1[Hg][Cl] is ___
**A:** active

**Q:** I would be grateful if you could indicate the recorded call for C[C@]12CCC(=O)C[C@@H]1CC[C@@H]1[C@@H]2CC[C@]2(C)[C@@H](O)CC[C@@H]12 .
**A:** inactive

**Q:** Hey, what did the test say about O[C@H]1[C@H]2[C@H](O)CCCN2C[C@H]1O ?
**A:** inactive

**Q:** Hello, I am checking results. What call was entered for O=C1CN=C(c2ccccc2)c2cc(Cl)ccc2N1CC1CC1 ?
**A:** inactive

**Q:** Short answer needed: outcome of this test for CN1c2ccccc2C(NCCCCCCC(=O)O)c2ccc(Cl)cc2S1(=O)=O (stereo unspecified) ?
**A:** inactive

**Q:** So what was the verdict on Clc1ccccc1Cl in this test?
**A:** inactive

**Q:** Given CCCCCl , state the outcome it received in this test.
**A:** inactive

**Q:** What classification did CCC1(c2ccccc2)C(=O)NC(=O)NC1=O end up with in this test?
**A:** inactive

**Q:** Called result for CC(=O)O[C@H]1CC[C@H]2[C@@H]3CCC4=CC(=O)CCC4=C3C=C[C@]12C
**A:** inactive

**Q:** Give the logged outcome of this assay for the following molecule: CC(Cc1ccccc1)NC=O (stereo unspecified)
**A:** inactive

**Q:** Check the results log: what was the call for O=C(OCCN1CCCCC1)C(O)(c1ccccc1)c1ccccc1 ?
**A:** inactive

**Q:** Kindly provide the recorded test outcome for the following molecule: O=c1[nH]cc(N(CCCl)CCCl)c(=O)[nH]1
**A:** inactive

**Q:** Kindly provide the recorded test outcome for the following molecule: O=C(CCl)c1ccc(Oc2ccc(C(=O)CCl)cc2)cc1
**A:** inactive

**Q:** // return assay outcome for O=C(CS(=O)C(c1ccccc1)c1ccccc1)NO (stereo unspecified)
**A:** inactive

**Q:** Recorded test call requested for c1ccc2sc(SNC3CCCCC3)nc2c1
**A:** inactive

**Q:** Could you kindly confirm the outcome this assay logged for C[C@H]1CC[C@@H]2[C@@H](C)[C@H]3[C@H](C[C@H]4[C@@H]5CC=C6CC(O[C@@H]7O[C@H](CO)[C@H](O)[C@H](O[C@@H]8O[C@H](CO)[C@@H](O)[C@H](O)[C@H]8O)[C@H]7O[C@H]7O[C@@H](C)[C@H](O)[C@@H](O)[C@H]7O)CC[C@]6(C)[C@H]5CC[C@]34C)N2C1 (stereo partly specified) ?
**A:** inactive

**Q:** Dear colleague, could you share the recorded outcome for FC(F)OC(F)(F)C(F)Cl (stereo unspecified) when you have a moment?
**A:** inactive

**Q:** What was the test verdict on [N-]=[N+]=CC(=O)OCC(N)C(=O)O (stereo unspecified) ?
**A:** inactive

**Q:** For this molecule, state the assay outcome: CCON=O
**A:** inactive

**Q:** How did this test come out for CCC(C)(S(=O)(=O)CC)S(=O)(=O)CC ?
**A:** inactive

**Q:** Assay outcome for O=S(=O)(O)c1cc(O)ccc1O : what was it?
**A:** inactive

**Q:** Tell me the assay call for CCCC(C)(COC(N)=O)COC(=O)NC1CC1 (stereo unspecified) please.
**A:** inactive

**Q:** Which outcome was assigned to CCCC(=O)OC(C(Cl)(Cl)Cl)P(=O)(OC)OC (stereo unspecified) in this test?
**A:** inactive

**Q:** // param item: ClC=C(Cl)Cl ; yields the recorded call
**A:** inactive

====

# method: Primary qHTS to identify inhibitors of SARS-CoV-2 cell entry (AID 1645846); further: nearly all actives have a fitted effect of over 45% in size
# test settings: SARS-CoV-2 pseudovirus cell entry assay, luminescence; at 57.1 µM (top of the series) unless noted
Results filed as inconclusive are left out.
So I've got a bunch of molecules here, and I need their activity change, negative = inhibition values.
Respond numerically; units are % and should not be typed.

**Q:** May I ask what activity change, negative = inhibition has been recorded for CCCCCCC(=O)O[C@H]1CC[C@H]2[C@@H]3CC[C@H]4CC(=O)C=C(C)[C@]4(C)[C@H]3CC[C@]12C ?
**A:** -7.93

**Q:** Query: activity change, negative = inhibition; subject: COc1cc2c(cc1OC)[C@@]13CCN4CC5=CCO[C@H]6CC(=O)N2[C@H]1[C@H]6[C@H]5C[C@H]43
**A:** -18.2

**Q:** Name the reported activity change, negative = inhibition value associated with the molecule C[C@]12CC[C@H]3[C@@H](CCC4=C(O)C(=O)CC[C@@H]43)[C@@H]1CC[C@@H]2OC(=O)CCC1CCCC1
**A:** -9.8

**Q:** Given the molecule Cn1sc(Cl)cc1=O , what is its reported activity change, negative = inhibition?
**A:** -5.28

**Q:** Name the recorded activity change, negative = inhibition for CCCCC[C@@H](O)C1C(=O)OC(C)[C@H](O)/C=C/C=C/C=C/C=C/C=C(\C)C(O)C(O)C(O)C[C@H](O)C[C@H](O)C[C@H](O)C[C@H](O)C[C@@H]1O (stereo partly drawn) .
**A:** -29.9

**Q:** Which activity change, negative = inhibition reading was recorded for the molecule O=[N+]([O-])c1ccccc1 ?
**A:** -19.1

**Q:** Param item = C[N+]1(C)CCCCC1COC(=O)C(O)(c1ccccc1)c1ccccc1 (stereo not drawn) ; retrieve measured activity change, negative = inhibition.
**A:** -8.43

**Q:** // lookup activity change, negative = inhibition for CCCCCCCCCC(=O)O[C@H]1CC[C@H]2[C@@H]3CCC4=CC(=O)CC[C@]4(C)[C@H]3CC[C@]12C
**A:** -15.3

**Q:** Which activity change, negative = inhibition value belongs to CC(C)CCC(=O)O[C@H]1CC[C@H]2[C@@H]3CCC4=CC(=O)CC[C@]4(C)[C@H]3CC[C@]12C ?
**A:** -25.5

**Q:** What measured activity change, negative = inhibition goes with C/C(O)=C(\C#N)C(=O)Nc1cc(Br)ccc1Br ?
**A:** -10.6

**Q:** Give the measured activity change, negative = inhibition of O=C(O)C(Cl)(Cl)Cl .
**A:** -27.9

====

# measured target: Tyrosine-protein phosphatase non-receptor type substrate 1 (Homo sapiens) + Leukocyte surface antigen CD47 (Homo sapiens) (UniProt P78324+Q08722)
# Sequence (P78324 whole entry, looked up): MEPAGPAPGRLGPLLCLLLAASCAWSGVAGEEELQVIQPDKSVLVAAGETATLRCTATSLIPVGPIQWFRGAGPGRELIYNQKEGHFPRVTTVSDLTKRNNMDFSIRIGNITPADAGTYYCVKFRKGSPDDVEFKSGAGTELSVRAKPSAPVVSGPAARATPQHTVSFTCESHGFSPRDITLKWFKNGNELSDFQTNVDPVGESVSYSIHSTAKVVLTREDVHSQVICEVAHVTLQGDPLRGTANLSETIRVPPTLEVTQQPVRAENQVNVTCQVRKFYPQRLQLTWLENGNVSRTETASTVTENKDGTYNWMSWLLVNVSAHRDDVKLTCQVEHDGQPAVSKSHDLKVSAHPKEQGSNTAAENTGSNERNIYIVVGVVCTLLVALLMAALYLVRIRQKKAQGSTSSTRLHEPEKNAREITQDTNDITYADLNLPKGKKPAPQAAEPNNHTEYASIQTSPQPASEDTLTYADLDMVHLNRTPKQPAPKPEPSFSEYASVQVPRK
# Sequence (Q08722 whole entry, looked up): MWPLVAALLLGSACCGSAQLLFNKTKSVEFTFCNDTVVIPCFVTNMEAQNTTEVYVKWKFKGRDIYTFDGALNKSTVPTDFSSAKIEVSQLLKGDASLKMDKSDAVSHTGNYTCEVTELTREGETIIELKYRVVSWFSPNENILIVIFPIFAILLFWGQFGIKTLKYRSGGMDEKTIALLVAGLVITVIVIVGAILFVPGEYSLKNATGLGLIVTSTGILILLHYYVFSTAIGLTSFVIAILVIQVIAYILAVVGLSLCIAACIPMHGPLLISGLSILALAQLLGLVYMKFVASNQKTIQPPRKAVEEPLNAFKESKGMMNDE
# method: CD47-SIRPalpha protein protein interaction - LANCE assay qHTS validation (AID 1347057)
# test settings: Recombinant CD47-His / biotin-SIRPalpha, TR-FRET ratio; series mostly up to 38.3 µM
Results filed as inconclusive are left out. The source made the active and inactive calls. Calls follow the shape of the dose curve; as a rule, active = well fitted curve in the direction sought with a large enough effect in the signal ratio, with a control signal flat (not every such curve was filed as active); inconclusive = small, poorly fitted or top-dose-only effect, or effect the other way, or a change in a side signal; inactive = no such curve, though single readings can be large or run the other way; the % refers to the signal ratio.
The reply should be one of these categories: class 1 = active, class 0 = inactive

**Q:** // return assay outcome for NC(C(=O)O)c1cc(=O)[nH]o1 (stereo not drawn)
**A:** class 0

**Q:** Record request — test call for CC(=O)OCC1=C(C(=O)O)N2C(=O)[C@@H](NC(=O)CCC[C@@H](N)C(=O)O)[C@H]2SC1
**A:** class 1

**Q:** # fetch the recorded call for CN1CC[C@@]2(C)c3cc(O)ccc3N(C)C12 (stereo partly drawn) here
**A:** class 0

**Q:** Name the outcome recorded for O=[N+]([O-])c1ccc2nc(N3CCNCC3)ccc2c1 in the assay.
**A:** class 0

**Q:** # fetch the recorded call for Clc1ccc(N2CC3CCC(C2)N3)nn1 here
**A:** class 0

**Q:** # fetch the recorded call for C[C@H](N)CN1CCc2ccc(Br)cc21 here
**A:** class 0

**Q:** Recorded test outcome, item CN1CC[C@@]2(C)c3cc(OC(=O)Nc4ccccc4)ccc3N(C)[C@@H]12
**A:** class 0

**Q:** Tell me the recorded outcome of this test for CC1(C(=O)O)C2CCC(O2)C1(C)C(=O)O (stereo not drawn) .
**A:** class 0

**Q:** Test call, this compound: COC(=O)N1CCN(C(=O)Cc2ccc(Cl)c(Cl)c2)C(CN2CCCC2)C1 (stereo not drawn)
**A:** class 0

**Q:** In this assay, the call recorded for Oc1ccc2c3c1O[C@H]1c4oc5ccccc5c4C[C@@]4(O)C(C2)N(CC2CC2)CCC314 (stereo partly drawn) was what?
**A:** class 0

**Q:** Call for entry O=C1C=CC(=O)C=C1 :
**A:** class 0

**Q:** State the result this test recorded for O=S1(=O)N(CCN2CC=C(c3c[nH]c4cc(F)ccc34)CC2)c2cccc3c2N1CCC3 .
**A:** class 0

**Q:** What call does the record list for Ic1ccccc1CNC1C2CCN(CC2)C1C(c1ccccc1)c1ccccc1 (stereo not drawn) ?
**A:** class 0

**Q:** Given CN(N=O)c1cc(O)ccc1O , state the outcome it received in this test.
**A:** class 0

**Q:** // return assay outcome for CC(Cc1ccc(OCC(=O)O)cc1)NCC(O)c1cccc(Cl)c1 (stereo not drawn)
**A:** class 0

**Q:** Dear colleague, could you share the recorded outcome for CC(C)(C)OC(=O)NC1[C@H]2CNC[C@@H]12 (stereo partly drawn) when you have a moment?
**A:** class 0

**Q:** Hi team, can someone confirm the assay call for CC(C)(O)[C@@H]1C2OC(=O)[C@@H]1[C@]1(O)C[C@H]3O[C@]34C(=O)O[C@H]2[C@]14C (tested in a mixture with another compound) ?
**A:** class 0

**Q:** Hi, sorry to bother you, what did the test record for CC(N)[C@H](O)c1ccc(O)c(O)c1 (stereo partly drawn) ?
**A:** class 0

**Q:** Outcome logged for COc1ccc2[nH]cc(CCN)c2c1 in this assay:
**A:** class 0

**Q:** # outcome recorded in this test, key = CC(N)Cc1c[nH]c2ccc(OCc3cccs3)cc12 (stereo not drawn)
**A:** class 0

**Q:** Outcome? CC(C)(C)c1o[nH]c(=O)c1CC(N)C(=O)O (stereo not drawn)
**A:** class 0

**Q:** // outcome(item) with item = NC(=O)c1cc(N2CC2)c([N+](=O)[O-])cc1[N+](=O)[O-]
**A:** class 0

**Q:** Could you please tell me the result logged for CCCN(CCC)C1Cc2cc(OC)c(OC)cc2C1 in this assay?
**A:** class 0

Data origin, for the record: PubChem BioAssay (NCATS)
